# test_name: in vitro
# measurement_setup: human, liver microsomes
Assignment: determine reported half-life for the given compounds.
# value in h; strip the unit string

Please list half-life recorded for the compound O=C(Nc1cc2cc[nH]c(=O)c2cc1Cl)C1CNCC1c1cccc(Br)c1 (racemic)
0.717

Please list half-life recorded for the compound O=C(Nc1cc2cc[nH]c(=O)c2cc1Cl)C1CNCC1c1ccc(F)cc1 (racemic)
1.02

Please list half-life recorded for the compound O=C(Nc1cc2cc[nH]c(=O)c2cc1Cl)C1CNCCC1c1ccccc1 (racemic)
0.617

Please list half-life recorded for the compound `O=C(Nc1cc2cc[nH]c(=O)c2cc1Cl)[C@@H]1CCCNC1`
1.18

Please list half-life recorded for the compound O=C(Nc1cc2cc[nH]c(=O)c2cc1Cl)C1CNCC1c1ccccc1 (racemic)
2.17

Please list half-life recorded for the compound O=C(Nc1cc2cc[nH]c(=O)c2cc1Cl)C1CNCC1c1ccccn1 (racemic)
0.967

----------
Assignment: determine reported pIC50 for the given compounds.
// pIC50 is dimensionless: -log10 of concentration (M)

Provide pIC50, system Rho-associated protein kinase 2 (Homo sapiens), entry O=C(Nc1cc2cc[nH]c(=O)c2cc1Cl)C1CNCC1c1ccc(Br)cc1 (racemic)
8.40

Provide pIC50, system Rho-associated protein kinase 2 (Homo sapiens), entry `O=C(Nc1cc2cc[nH]c(=O)c2cc1Cl)[C@@H]1CNC[C@H]1c1ccc(Cl)cc1`
8.40

Provide pIC50, system Rho-associated protein kinase 2 (Homo sapiens), entry O=C(Nc1cc2cc[nH]c(=O)c2cc1Cl)C1CNCC1c1ccc(F)cc1 (racemic)
8.05

----------
# assayed_target: UniProtKB Q13237
# Sequence (Q13237 whole entry): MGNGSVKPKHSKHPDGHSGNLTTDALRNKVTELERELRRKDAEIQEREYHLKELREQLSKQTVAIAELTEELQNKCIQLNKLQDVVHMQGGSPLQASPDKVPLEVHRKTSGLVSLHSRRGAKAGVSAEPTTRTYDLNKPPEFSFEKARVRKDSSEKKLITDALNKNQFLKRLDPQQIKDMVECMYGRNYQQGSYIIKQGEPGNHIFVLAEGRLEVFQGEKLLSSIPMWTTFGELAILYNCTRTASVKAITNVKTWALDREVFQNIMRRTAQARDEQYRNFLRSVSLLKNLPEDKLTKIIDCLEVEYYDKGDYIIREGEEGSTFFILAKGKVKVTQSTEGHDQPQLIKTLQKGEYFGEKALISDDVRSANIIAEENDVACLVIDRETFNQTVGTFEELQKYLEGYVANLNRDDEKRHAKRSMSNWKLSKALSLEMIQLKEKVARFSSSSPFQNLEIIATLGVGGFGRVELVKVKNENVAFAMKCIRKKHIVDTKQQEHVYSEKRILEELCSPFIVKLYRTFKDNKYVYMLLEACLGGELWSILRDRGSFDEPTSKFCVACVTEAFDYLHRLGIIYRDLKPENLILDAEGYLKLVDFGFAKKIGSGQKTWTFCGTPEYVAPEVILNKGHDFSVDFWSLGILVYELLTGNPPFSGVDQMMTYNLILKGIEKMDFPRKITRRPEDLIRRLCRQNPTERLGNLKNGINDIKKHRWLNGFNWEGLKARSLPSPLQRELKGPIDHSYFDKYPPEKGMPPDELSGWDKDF
quantity_measured: IC50 (nM)
# value in nM; strip the unit string

Provide IC50, system UniProtKB Q13237, entry `O=C(Nc1cc2cc[nH]c(=O)c2cc1Cl)[C@@H]1CNC[C@H]1c1ccc(Cl)cc1`
24

The origin of these recorded values is ChEMBL document CHEMBL1155533.
